Test system: RPMI-8226
Test: NCI tumour cell line growth inhibition, 48 h
Active and inactive are the calls of the source. No stated cut-off is given here; in the data, active = GI50 up to about 1.1 µM and inactive = higher.
Output constraint: value belongs to true (1) = active, false (0) = inactive

Consider the worked cases shown below.
{"molecule": "O=C(NCCNCCO)N/N=C/c1cccc([N+](=O)[O-])c1", "class": "false (0)"}
{"molecule": "Cc1nc2ccccc2cc1C[N+]12CN3CN(CN(C3)C1)C2", "class": "false (0)"}
{"molecule": "Oc1cc(Cl)cc2cc(Br)cnc12", "class": "false (0)"}
{"molecule": "COC1OC(C)C(O)CC1OS(=O)(=O)c1ccc(C)cc1 (stereo not drawn)", "class": "false (0)"}
{"molecule": "CCCN1C(=O)CCC2=C1CCc1c2ccc(Cl)c1Cl", "class": "false (0)"}
{"molecule": "O=C1NC(=S)N/C1=C\\c1cccs1", "class": "false (0)"}
{"molecule": "COc1ccc2c(c1)c(=O)c1ccccc1n2/C=C/C(=O)O", "class": "false (0)"}
{"molecule": "CN(C)Cc1cc(C(=O)/C=C/c2ccc(F)cc2)cc(CN(C)C)c1O", "class": "false (0)"}

-- ask Outcome logged for `CCNCCCCNCC` in this assay:
-- reply false (0)

-- ask Would you mind telling me which call this test gave `O=C(c1ccc(Cl)cc1)N(C(=S)N1CCN(c2ccccn2)CC1)C1CCCCC1` ?
-- reply false (0)
